Documented pIC50 across a set of compounds
Protein target, amino acids: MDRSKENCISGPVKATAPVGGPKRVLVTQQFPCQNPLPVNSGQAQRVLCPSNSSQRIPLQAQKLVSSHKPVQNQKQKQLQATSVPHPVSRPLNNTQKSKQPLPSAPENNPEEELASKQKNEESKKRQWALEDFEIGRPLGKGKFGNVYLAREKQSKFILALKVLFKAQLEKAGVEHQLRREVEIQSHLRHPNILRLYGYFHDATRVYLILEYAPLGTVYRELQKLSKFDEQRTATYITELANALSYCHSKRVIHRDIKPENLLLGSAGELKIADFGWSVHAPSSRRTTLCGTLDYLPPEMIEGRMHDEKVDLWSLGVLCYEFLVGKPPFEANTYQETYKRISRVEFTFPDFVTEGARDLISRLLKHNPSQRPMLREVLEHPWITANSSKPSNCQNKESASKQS
Please treat pIC50 as minus the base-10 logarithm of the molar concentration.

Guide cases for pIC50, answers given:
>  <Smiles Repr>
CN1CCN(C(=O)c2cc(Nc3ncc4cc(-c5cnco5)n(C5CCCC5)c4n3)cn2C)CC1

>  <Observable>
pIC50

>  <Value Measured>
8.70

$$$$
>  <Smiles Repr>
Cc1c(-c2cc3cnc(Nc4cc(C(=O)N5CCN(C)CC5)n(C)c4)nc3n2C2CCCC2)cnn1C

>  <Observable>
pIC50

>  <Value Measured>
8.70

$$$$
>  <Smiles Repr>
CN1CCN(C(=O)c2cc(Nc3ncc4cc(-c5cnn(Cc6ccccc6)c5)n(C5CCCC5)c4n3)cn2C)CC1

>  <Observable>
pIC50

>  <Value Measured>
8.70

$$$$
>  <Smiles Repr>
CC(C)CCn1cc(-c2cc3cnc(Nc4cc(C(=O)N5CCN(C)CC5)n(C)c4)nc3n2C2CCCC2)cn1

>  <Observable>
pIC50

>  <Value Measured>
8.70

$$$$
>  <Smiles Repr>
CN1CCN(C(=O)c2cc(Nc3ncc4cc(-c5cncn5C)n(C5CCCC5)c4n3)cn2C)CC1

>  <Observable>
pIC50

>  <Value Measured>
8.70

$$$$
>  <Smiles Repr>
CNCc1cc2cnc(Nc3cc(C(=O)N4CCN(C)CC4)n(C)c3)nc2n1C1CCCC1

>  <Observable>
pIC50

>  <Value Measured>
7.40

$$$$

Kindly consider the entry below.
Give its pIC50 value. Item: CN1CCN(C(=O)c2cc(Nc3ncc4cc(/C=N/O)n(C5CCCC5)c4n3)cn2C)CC1
7.96

###

Tested on: HCT-116
Assay: Induction of cell cycle arrest in human HCT116 cells assessed as minimum concentration required for G2/M versus G1 peak ratio over 2
Type: functional
Observable: log10(Activity) (log10 of the value in µM)
All values: base-10 log of Activity in µM.

>  <Smiles Repr>
CC(C)CCn1cc(-c2cc3cnc(Nc4cc(C(=O)N5CCN(C)CC5)n(C)c4)nc3n2C2CCCC2)cn1

>  <Value Measured>
-1.00

$$$$
>  <Smiles Repr>
CN1CCN(C(=O)c2cc(Nc3ncc4cc(-c5ccnn5C)n(C5CCCC5)c4n3)cn2C)CC1

>  <Value Measured>
0.00

$$$$
>  <Smiles Repr>
CN1CCN(C(=O)c2cc(Nc3ncc4cc(C(=O)O)n(C5CCCC5)c4n3)cn2C)CC1

>  <Value Measured>
1.00

$$$$

Give its log10(Activity) value. Item: CN1CCN(C(=O)c2cc(Nc3ncc4ccn(C5CCCC5)c4n3)cn2C)CC1
-0.52

Give its log10(Activity) value. Item: CNCc1cc2cnc(Nc3cc(C(=O)N4CCN(C)CC4)n(C)c3)nc2n1C1CCCC1
-0.52

Give its log10(Activity) value. Item: CN1CCN(C(=O)c2cc(Nc3ncc4cc(-c5cnn(C)c5)n(C5CCCC5)c4n3)cn2C)CC1
-1.52
